Attribution: patent US12612407B2

Target: human TLR7 (Homo sapiens, UniProt Q9NYK1)
Construct: host or cells: HEK293 (HEK-Blue hTLR7)
Sequence (Q9NYK1 27-1049): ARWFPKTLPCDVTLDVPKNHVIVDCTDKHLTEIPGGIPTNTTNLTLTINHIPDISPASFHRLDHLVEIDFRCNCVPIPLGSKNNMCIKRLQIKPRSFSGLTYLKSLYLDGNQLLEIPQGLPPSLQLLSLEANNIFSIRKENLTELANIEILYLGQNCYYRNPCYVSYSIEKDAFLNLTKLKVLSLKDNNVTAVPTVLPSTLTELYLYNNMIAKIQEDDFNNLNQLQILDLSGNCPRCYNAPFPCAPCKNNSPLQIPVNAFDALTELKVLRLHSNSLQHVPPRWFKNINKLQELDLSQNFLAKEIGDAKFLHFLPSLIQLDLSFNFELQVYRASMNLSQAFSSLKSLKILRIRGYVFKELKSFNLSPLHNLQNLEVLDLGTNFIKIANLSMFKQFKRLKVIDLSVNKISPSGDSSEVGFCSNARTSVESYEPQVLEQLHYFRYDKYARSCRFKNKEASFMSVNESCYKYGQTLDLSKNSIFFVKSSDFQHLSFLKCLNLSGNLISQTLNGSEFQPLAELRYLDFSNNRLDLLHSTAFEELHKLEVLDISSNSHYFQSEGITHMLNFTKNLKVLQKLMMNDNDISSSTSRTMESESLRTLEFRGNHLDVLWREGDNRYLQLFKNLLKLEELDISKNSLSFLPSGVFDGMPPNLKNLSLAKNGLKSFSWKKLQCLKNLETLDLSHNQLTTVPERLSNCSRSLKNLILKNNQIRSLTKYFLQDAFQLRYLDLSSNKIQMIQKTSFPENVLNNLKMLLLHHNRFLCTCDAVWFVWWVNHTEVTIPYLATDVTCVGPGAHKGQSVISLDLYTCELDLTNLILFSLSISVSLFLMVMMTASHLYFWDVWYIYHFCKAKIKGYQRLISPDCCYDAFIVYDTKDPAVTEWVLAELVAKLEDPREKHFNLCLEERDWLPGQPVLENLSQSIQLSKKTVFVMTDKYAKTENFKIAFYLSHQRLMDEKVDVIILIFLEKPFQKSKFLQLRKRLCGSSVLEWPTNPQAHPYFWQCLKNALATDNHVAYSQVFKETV
Experiment: HEK293-Blue hTLR7 Reporter Assay (QUANTI-BLUE, SEAP readout)
Format: cell-based
Details: HEK-Blue-hTLR7 cells, 24 hrs treatment, Table 1, B1-B232
measure: EC50 (nM)

Example compounds with recorded EC50:
CCCC(CCC)Nc1nc(N)c2ncc(Cc3cnc(N4CCC(CNC)CC4)c(C)c3)n2n1	3.6
CCCCOc1nc(N)c2ncc(Cc3ccc(N4CCNCC4)c(CC)c3)n2n1	464
CCCCOc1nc(N)c2ncc(Cc3ccc(C4CCNCC4)nc3)n2n1	227

a: CCC[C@H](C)Nc1nc(N)c2ncc(Cc3cnc(N4CCC(CNC)CC4)c(C)c3)n2n1 (single isomer, unassigned)
b: CCCCOc1nc(N)c2ncc(Cc3cnc(N4CCN(CC)CC4)c(C)c3)n2n1
c: CCCCOc1nc(N)c2ncc(Cc3cnc(N4CCN(C(=O)C5CCNCC5)CC4)c(C)c3)n2n1
d: CCCCOc1nc(N)c2ncc(Cc3cnc(N4CCNCC4)cc3C)n2n1
Task: Rank entries according to their EC50, from the largest number down. Output spec: labels arranged per the requested ranking.
Result: d, c, b, a

----------
Target: human TLR7 (Homo sapiens)
Construct: host or cells: HEK293 (HEK-Blue hTLR7)
Test: HEK293-Blue hTLR7 Reporter Assay (QUANTI-BLUE, SEAP readout)
Assay type: cell-based
Settings: HEK-Blue-hTLR7 cells, 24 hrs treatment, Table 1, B1-B232
measure: EC50 (nM)

CCCCOc1nc(N)c2ncc(Cc3cnc(N4CCN(C(=O)CN)CC4)c(C)c3)n2n1	210
CC[C@H](C)Oc1nc(N)c2ncc(Cc3cnc(N4CCNCC4)c(C)c3)n2n1	6.5

P: Cc1cc(Cc2cnc3c(N)nc(NCCC(C)C)nn23)cnc1N1CCNCC1
Q: CCCCNc1nc(N)c2ncc(Cc3cnc(N4CCN(C(=O)CN(C)C)CC4)c(C)c3)n2n1
Task: Which has the smaller recorded EC50, P or Q ? Answer = label.
Result: Q

----------
Biological target: human TLR7 (Homo sapiens)
Construct: host or cells: HEK293 (HEK-Blue hTLR7)
Test: HEK293-Blue hTLR7 Reporter Assay (QUANTI-BLUE, SEAP readout)
Type: cell-based
Conditions: HEK-Blue-hTLR7 cells, 24 hrs treatment, Table 1, B1-B232
pEC50: −log10 of the molar value.
measure: pEC50

CCCCOc1nc(N)c2ncc(Cc3cnc(N4CCNCC4)cc3Cl)n2n1	5.62

1: CCCCOc1nc(N)c2ncc(Cc3cnc(N4CCN[C@@H](C)C4)c(C)c3)n2n1
2: CCCCOc1nc(N)c2ncc(Cc3ccc(N4CCNCC4)c(OC(C)C)c3)n2n1
Task: Which has the smaller recorded pEC50, 1 or 2 ? Answer = label.
Result: 2
(2: 6.02, 1: 7.32)

----------
Target: human TLR7 (Homo sapiens, UniProt Q9NYK1)
Construct: host or cells: HEK293 (HEK-Blue hTLR7)
Experiment: TLR7 Stimulation Determined Using HEK-Blue Detection
Type: cell-based
Settings: HEK-Blue hTLR7 cells, 16 hr, percentages of maximum activation with Resiquimod, Table 1, B233-B247
measure: EC50 (nM)

Example molecules with recorded EC50:
CCC[C@H](C)Oc1nc(N)c2ncc(Cc3ccn(C4CCNCC4)c(=O)c3)n2n1	35
CCC[C@H](C)Oc1nc(N)c2ncc(Cc3cnc(N4CCNCC4)c(OC)c3)n2n1	5.5
CCCC(C)Oc1nc(N)c2ncc(Cc3cnc(N4CCC(CNCCOC)CC4)c(C)c3)n2n1 (centres unmarked)	8.5
CCCC(C)Oc1nc(N)c2ncc(Cc3cnc(N4CCC(CNCC(C)C)CC4)c(C)c3)n2n1 (centres unmarked)	5.3
CCC[C@H](C)Nc1nc(N)c2ncc(Cc3cnc(N4CCN[C@@H](CC#N)C4)c(C)c3)n2n1	18.4

1: CCCC(C)Oc1nc(N)c2ncc(Cc3ccc(C4CCNCC4)nc3F)n2n1 (centres unmarked)
2: CCC[C@H](C)Oc1nc(N)c2ncc(Cc3ccc(C4CCNCC4)nc3F)n2n1
3: CCC[C@H](C)Nc1nc(N)c2ncc(Cc3cnc(C4CCNCC4)c(C)c3)n2n1
Task: In this exercise, place the 3 molecules in ascending sequence of their recorded EC50. Output spec: labels arranged per the requested ranking.
Result: 3, 2, 1
